Below, each entry is listed with its recorded normalized RNA/DNA level without ligand (log10).
B1: library; a variant is named by its letters at N, in order (parent)
chain: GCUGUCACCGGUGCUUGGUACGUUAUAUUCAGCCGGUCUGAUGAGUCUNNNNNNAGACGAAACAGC

Variants of: B1
assay: normalized RNA/DNA level without ligand (relative to sTRSVctl = 100) (log10 (% of sTRSVctl)); HEK293T overexpressing SLC46A1; higher = less ribozyme self-cleavage, higher mRNA level
test-context: without (6R,S)-folinic acid; ligand present: no
Answer using only a numeral; do not append any unit.

Some variants with recorded normalized RNA/DNA level without ligand (log10):
var: UAGGGU
measurement: 1.88
--
var: UCCGGC
measurement: 2.08
--
var: UGUCGA
measurement: 1.9
--
var: AGAUUA
measurement: 2
--
var: CAGCCU
measurement: 2.05
--
var: CUCAGC
measurement: 2.06

In the following, a different variant is considered.
Prompt line: Look up and state reported normalized RNA/DNA level without ligand (log10) for AGGCUA
Response line: 2.04
